Please respond with reported IC50 for every item in the list.
system: 889142-216-R-J1-PDC complex spheroid viability; test: Anticancer human tumor 889142-216-R-J1-PDC patient-derived bladder carcinoma cell line growth inhibition [POLQ]; details: curve of first compound; second compound 0.1 µM

For this compound ( CNCc1ccc(-c2[nH]c3cc(F)cc4c3c2CCNC4=O)cc1 + COC1C(OC(N)=O)C(O)C(Oc2ccc3c(O)c(NC(=O)c4ccc(O)c(CC=C(C)C)c4)c(=O)oc3c2C)OC1(C)C ), measured IC50 is > 10 µM

For this compound ( COc1cccc2c1C(=O)c1c(O)c3c(c(O)c1C2=O)CC(O)(C(=O)CO)CC3OC1CC(N)C(O)C(C)O1 (stereo not given) + Cc1cccc(N(C)C(=O)C2C(O)CCN2c2nc(C)cc(C(F)(F)F)c2C#N)c1 ), measured IC50 is 0.148 µM

For this compound ( O=c1[nH]cc(F)c(=O)[nH]1 + COC1C(OC(N)=O)C(O)C(Oc2ccc3c(O)c(NC(=O)c4ccc(O)c(CC=C(C)C)c4)c(=O)oc3c2C)OC1(C)C ), measured IC50 is > 10 µM

For this compound ( CC(=O)O[C@H]1C(=O)[C@@]2(C)[C@H]([C@H](OC(=O)c3ccccc3)[C@]3(O)C[C@H](OC(=O)[C@H](O)[C@@H](NC(=O)c4ccccc4)c4ccccc4)C(C)=C1C3(C)C)[C@]1(OC(C)=O)CO[C@@H]1C[C@@H]2O + Nc1ccc(C#CCN(C(=O)Cc2ncc(C(F)(F)F)cc2C(F)(F)F)c2ccc(F)cc2)nn1 ), measured IC50 is 0.907 µM

For this compound ( C=CC(=O)N1CCN(c2nc(=O)n(-c3c(C)ccnc3C(C)C)c3nc(-c4c(O)cccc4F)c(F)cc23)C(C)C1 (stereo not given) + Nc1ccc(C#CCN(C(=O)Cc2ncc(C(F)(F)F)cc2C(F)(F)F)c2ccc(F)cc2)nn1 ), measured IC50 is > 10 µM

###

tested on: 889142-216-R-J1-PDC complex spheroid viability; assay: Anticancer human tumor 889142-216-R-J1-PDC cell line growth inhibition [POLQ]; conditions: second compound 10 µM; first compound 0.316 µM; stronger effect = lower value;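 note: spheroids exposed to compounds for seven days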
Decide using viability, T/C alone. Strictly below 90%: yes. Equal to or above 90%: no.

Data request: Please determine if COc1cccc2c1C(=O)c1c(O)c3c(c(O)c1C2=O)CC(O)(C(=O)CO)CC3OC1CC(N)C(O)C(C)O1 (stereo unspecified) + Cc1cccc(N(C)C(=O)C2C(O)CCN2c2nc(C)cc(C(F)(F)F)c2C#N)c1 is below 90% in terms of viability, T/C.
Data returned: yes

Data request: Please determine if Nc1ccn(C2OC(CO)C(O)C2(F)F)c(=O)n1 (stereo unspecified) + Nc1ccc(C#CCN(C(=O)Cc2ncc(C(F)(F)F)cc2C(F)(F)F)c2ccc(F)cc2)nn1 is below 90% in terms of viability, T/C.
Data returned: yes

Data request: Please determine if CC1COCCN1c1cc(C2(S(C)(=N)=O)CC2)nc(-c2ccnc3[nH]ccc23)n1 (stereo unspecified) + COC1C(OC(N)=O)C(O)C(Oc2ccc3c(O)c(NC(=O)c4ccc(O)c(CC=C(C)C)c4)c(=O)oc3c2C)OC1(C)C is below 90% in terms of viability, T/C.
Data returned: yes

Data request: Please determine if Nc1ccn(C2OC(CO)C(O)C2(F)F)c(=O)n1 (stereo unspecified) + COC1C(OC(N)=O)C(O)C(Oc2ccc3c(O)c(NC(=O)c4ccc(O)c(CC=C(C)C)c4)c(=O)oc3c2C)OC1(C)C is below 90% in terms of viability, T/C.
Data returned: yes

Data request: Please determine if C=CC(=O)N1CCN(c2nc(=O)n(-c3c(C)ccnc3C(C)C)c3nc(-c4c(O)cccc4F)c(F)cc23)C(C)C1 (stereo unspecified) + Cc1cccc(N(C)C(=O)C2C(O)CCN2c2nc(C)cc(C(F)(F)F)c2C#N)c1 is below 90% in terms of viability, T/C.
Data returned: yes

Data request: Please determine if CC1COCCN1c1cc(C2(O)CC3CCC(C2)O3)c2cnn(-c3ccn[nH]3)c2n1 (stereo unspecified) + Nc1ccc(C#CCN(C(=O)Cc2ncc(C(F)(F)F)cc2C(F)(F)F)c2ccc(F)cc2)nn1 is below 90% in terms of viability, T/C.
Data returned: yes

Data request: Please determine if C=CCn1c(=O)c2cnc(Nc3ccc(N4CCN(C)CC4)cc3)nc2n1-c1cccc(C(C)(C)O)n1 + COC1C(OC(N)=O)C(O)C(Oc2ccc3c(O)c(NC(=O)c4ccc(O)c(CC=C(C)C)c4)c(=O)oc3c2C)OC1(C)C is below 90% in terms of viability, T/C.
Data returned: yes

Data request: Please determine if COc1cccc(OCCCN)c1-c1cc(Nc2cnc(C#N)cn2)n[nH]1 + COC1C(OC(N)=O)C(O)C(Oc2ccc3c(O)c(NC(=O)c4ccc(O)c(CC=C(C)C)c4)c(=O)oc3c2C)OC1(C)C is below 90% in terms of viability, T/C.
Data returned: yes

Data request: Please determine if COc1cc(C2c3cc4c(cc3C(OC3OC5COC(C)OC5C(O)C3O)C3COC(=O)C23)OCO4)cc(OC)c1O (stereo unspecified) + Nc1ccc(C#CCN(C(=O)Cc2ncc(C(F)(F)F)cc2C(F)(F)F)c2ccc(F)cc2)nn1 is below 90% in terms of viability, T/C.
Data returned: yes

Data request: Please determine if COc1ccc([C@@H](O)c2cc(-c3ncnc4cc(N5CCOCC5)ccc34)c(F)cc2Cl)nn1 + Nc1ccc(C#CCN(C(=O)Cc2ncc(C(F)(F)F)cc2C(F)(F)F)c2ccc(F)cc2)nn1 is below 90% in terms of viability, T/C.
Data returned: no

Data request: Please determine if CCc1c2c(nc3ccc(O)cc13)-c1cc3c(c(=O)n1C2)COC(=O)[C@]3(O)CC + Cc1cccc(N(C)C(=O)C2C(O)CCN2c2nc(C)cc(C(F)(F)F)c2C#N)c1 is below 90% in terms of viability, T/C.
Data returned: yes

Data request: Please determine if COc1cc(C2c3cc4c(cc3C(OC3OC5COC(C)OC5C(O)C3O)C3COC(=O)C23)OCO4)cc(OC)c1O (stereo unspecified) + Cc1cccc(N(C)C(=O)C2C(O)CCN2c2nc(C)cc(C(F)(F)F)c2C#N)c1 is below 90% in terms of viability, T/C.
Data returned: yes

Data request: Please determine if Nc1ccn(C2OC(CO)C(O)C2(F)F)c(=O)n1 (stereo unspecified) + Cc1cccc(N(C)C(=O)C2C(O)CCN2c2nc(C)cc(C(F)(F)F)c2C#N)c1 is below 90% in terms of viability, T/C.
Data returned: yes

Data request: Please determine if O=C(Nc1ccc(O)c(NS(=O)(=O)c2ccc(F)cc2)c1)c1ccc(-c2ccccc2)cc1 + COC1C(OC(N)=O)C(O)C(Oc2ccc3c(O)c(NC(=O)c4ccc(O)c(CC=C(C)C)c4)c(=O)oc3c2C)OC1(C)C is below 90% in terms of viability, T/C.
Data returned: no

Data request: Please determine if CNCc1ccc(-c2[nH]c3cc(F)cc4c3c2CCNC4=O)cc1 + Nc1ccc(C#CCN(C(=O)Cc2ncc(C(F)(F)F)cc2C(F)(F)F)c2ccc(F)cc2)nn1 is below 90% in terms of viability, T/C.
Data returned: no

Data request: Please determine if C=CC(=O)N1CCN(c2nc(=O)n(-c3c(C)ccnc3C(C)C)c3nc(-c4c(O)cccc4F)c(F)cc23)C(C)C1 (stereo unspecified) + COC1C(OC(N)=O)C(O)C(Oc2ccc3c(O)c(NC(=O)c4ccc(O)c(CC=C(C)C)c4)c(=O)oc3c2C)OC1(C)C is below 90% in terms of viability, T/C.
Data returned: no

Data request: Please determine if CCc1c2c(nc3ccc(O)cc13)-c1cc3c(c(=O)n1C2)COC(=O)[C@]3(O)CC + Nc1ccc(C#CCN(C(=O)Cc2ncc(C(F)(F)F)cc2C(F)(F)F)c2ccc(F)cc2)nn1 is below 90% in terms of viability, T/C.
Data returned: yes

Data request: Please determine if CCc1cc2c(N3CCc4c(cc(Cn5ccnc5)cc4-c4cn(C)nc4C(F)(F)F)C3=O)ccnc2c(OC)n1 + COC1C(OC(N)=O)C(O)C(Oc2ccc3c(O)c(NC(=O)c4ccc(O)c(CC=C(C)C)c4)c(=O)oc3c2C)OC1(C)C is below 90% in terms of viability, T/C.
Data returned: no

Data request: Please determine if CCc1cc2c(N3CCc4c(cc(Cn5ccnc5)cc4-c4cn(C)nc4C(F)(F)F)C3=O)ccnc2c(OC)n1 + Nc1ccc(C#CCN(C(=O)Cc2ncc(C(F)(F)F)cc2C(F)(F)F)c2ccc(F)cc2)nn1 is below 90% in terms of viability, T/C.
Data returned: no
